Field: half-life. Provide a value for each of the compounds that follow.
Test: Half-life for the conversion of compound to ketone, was examined by 19F NMR spectroscopy in USP-simulated intestinal fluid, at 50 degree Centigrade.
Format: ADME
Numbers only, in h.

>  <line_notation>
CC(=O)O/C(=C(/NC(=O)[C@@H]1CCCN1C(=O)[C@@H](NC(=O)c1ccc(C(=O)NS(=O)(=O)c2ccc(Cl)cc2)cc1)C(C)C)C(C)C)C(F)(F)F

>  <readout_value>
1.2

$$$$

Now consider a different compound.
If you can, please state the reported half-life value of "CC(=O)O/C(=C(/NC(=O)[C@@H]1CCCN1C(=O)[C@@H](NC(=O)c1ccc(C(=O)N2CCOCC2)cc1)C(C)C)C(C)C)C(F)(F)C(F)(F)F" . 3.1

====

Experiment: Half-life for the conversion of compound to ketone, was examined by 19F NMR spectroscopy in USP-simulated intestinal fluid, at 37 degree Centigrade.
Format: ADME
Field: half-life. Provide a value for each of the molecules that follow.
Answers are plain numbers, in h.

Each molecule below has a recorded value; state its half-life.
1. CC(=O)O/C(=C(/NC(=O)[C@@H]1CCCN1C(=O)[C@@H](NC(=O)c1ccc(C(=O)N2CCOCC2)cc1)C(C)C)C(C)C)C(F)(F)F
2. CC(=O)O/C(=C(\NC(=O)[C@@H]1CCCN1C(=O)[C@@H](NC(=O)c1ccc(C(=O)N2CCOCC2)cc1)C(C)C)C(C)C)C(F)(F)C(F)(F)F

1. 2.9
2. 6.6

If you can, please state the reported half-life value of "CC(=O)O/C(=C(/NC(=O)[C@@H]1CCCN1C(=O)[C@@H](NC(=O)c1ccc(C(=O)N2CCOCC2)cc1)C(C)C)C(C)C)C(F)(F)C(F)(F)F" . 7.3

====

Target: Neutrophil elastase (Homo sapiens)
Sequence (P08246 whole entry): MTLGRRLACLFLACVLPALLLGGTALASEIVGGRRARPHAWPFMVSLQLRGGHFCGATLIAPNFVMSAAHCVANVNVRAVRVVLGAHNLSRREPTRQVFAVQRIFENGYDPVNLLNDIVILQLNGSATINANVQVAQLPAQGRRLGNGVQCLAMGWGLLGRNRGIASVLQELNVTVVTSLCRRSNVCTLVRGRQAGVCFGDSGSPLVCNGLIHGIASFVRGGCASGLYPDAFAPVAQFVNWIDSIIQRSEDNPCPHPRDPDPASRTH
Assay: Binding affinity for purified Human neutrophil elastase was determined in the presence of pig liver esterase, in vitro.
Field: pKi. Provide a value for each of the compounds that follow.
Answers are plain numbers, as −log10 of the molar value.

Each compound below has a recorded value; state its pKi.
1. CC(=O)O/C(=C(/NC(=O)[C@@H]1CCCN1C(=O)[C@@H](NC(=O)c1ccc(C(=O)N2CCOCC2)cc1)C(C)C)C(C)C)C(F)(F)C(F)(F)F
2. CC(=O)O/C(=C(/NC(=O)[C@@H]1CCCN1C(=O)[C@@H](NC(=O)N1CCOCC1)C(C)C)C(C)C)C(F)(F)F
3. CC(=O)O/C(=C(/NC(=O)[C@@H]1CCCN1C(=O)[C@@H](NC(=O)c1ccc(C(=O)N2CCOCC2)cc1)C(C)C)C(C)C)C(F)(F)F
4. CCC(=O)O/C(=C(/NC(=O)[C@@H]1CCCN1C(=O)[C@@H](NC(=O)c1ccc(C(=O)N2CCOCC2)cc1)C(C)C)C(C)C)C(F)(F)C(F)(F)F
5. CC(=O)O/C(=C(/NC(=O)[C@@H]1CCCN1C(=O)[C@@H](NC(=O)c1ccc(C(=O)NS(=O)(=O)c2ccc(Cl)cc2)cc1)C(C)C)C(C)C)C(F)(F)F
6. CC(C)C(=O)O/C(=C(/NC(=O)[C@@H]1CCCN1C(=O)[C@@H](NC(=O)c1ccc(C(=O)N2CCOCC2)cc1)C(C)C)C(C)C)C(F)(F)C(F)(F)F

7.60
6.82
7.80
7.60
8.52
7.60

Entry source: ChEMBL document CHEMBL1128566
